Ref: ChEMBL document CHEMBL1132327

- Organism: Mus musculus
- testDescription: Biodistribution of [225Ac]-labeled compound in normal mice heart after 4 hr
- Assay type: ADME, organism-based
- measurementParameters: in vivo
assayReadout: ID/g (%)

P. O=C(O)CN(CC(=O)O)[C@H](Cc1ccc([N+](=O)[O-])cc1)CN(CC(=O)O)[C@@H]1CCCC[C@H]1N(CC(=O)O)CC(=O)O
Q. O=C(O)CN1CCN(CC(=O)O)CCN(CC(=O)O)CCN(CC(=O)O)CCN(CC(=O)O)CC1
R. O=C(O)CN1CCN(CC(=O)O)CCN(CC(=O)O)C(Cc2ccc([N+](=O)[O-])cc2)CN(CC(=O)O)CC1 (centres undefined)
S. O=C(O)CN1CCN(CC(=O)O)CCN(CC(=O)O)CCN(CC(=O)O)CCN(CC(=O)O)CCN(CC(=O)O)CC1
In: Sort the items above on ID/g, descending. As an answer, provide the labels arranged in the order called for.
Out: Q, P, R, S
(Q: 2.34%, P: 1.51%, R: 0.12%, S: 0.032%)

---

- Species: Mus musculus
- testDescription: Biodistribution of [225Ac]-labeled compound in normal mice liver after 1 hr
- Format: ADME, organism-based
- measurementParameters: in vivo
assayReadout: ID/g (%)

[
  {
    "compound": "O=C(O)CN(CC(=O)O)[C@H](Cc1ccc([N+](=O)[O-])cc1)CN(CC(=O)O)[C@@H]1CCCC[C@H]1N(CC(=O)O)CC(=O)O",
    "measurementUnits": "%",
    "reportedValue": 8.85
  }
]

P. O=C(O)CN1CCN(CC(=O)O)CCN(CC(=O)O)C(Cc2ccc([N+](=O)[O-])cc2)CN(CC(=O)O)CC1 (centres undefined)
Q. O=C(O)CN1CCN(CC(=O)O)CCN(CC(=O)O)CCN(CC(=O)O)CCN(CC(=O)O)CC1
R. O=C(O)CN1CCN(CC(=O)O)CCN(CC(=O)O)CCN(CC(=O)O)CCN(CC(=O)O)CCN(CC(=O)O)CC1
In: Arrange the 3 compounds from largest to smallest ID/g. # answer = labels listed in requested order
Out: Q, P, R

---

- Species on record: Mus musculus
- testDescription: Biodistribution of [225Ac]-labeled compound in normal mice bone after 120 hr
- Type: ADME, organism-based, Bone element
- measurementParameters: in vivo
assayReadout: ID/g (%)

See these solved cases before continuing.
[
  {
    "compound": "O=C(O)CN1CCN(CC(=O)O)CCN(CC(=O)O)CCN(CC(=O)O)CCN(CC(=O)O)CCN(CC(=O)O)CC1",
    "reportedValue": 0.02
  },
  {
    "compound": "O=C(O)CN(CC(=O)O)[C@H](Cc1ccc([N+](=O)[O-])cc1)CN(CC(=O)O)[C@@H]1CCCC[C@H]1N(CC(=O)O)CC(=O)O",
    "reportedValue": 4.18
  }
]

1. O=C(O)CN1CCN(CC(=O)O)CCN(CC(=O)O)C(Cc2ccc([N+](=O)[O-])cc2)CN(CC(=O)O)CC1 (centres undefined)
2. O=C(O)CN1CCN(CC(=O)O)CCN(CC(=O)O)CCN(CC(=O)O)CCN(CC(=O)O)CC1
In: Smaller ID/g value, 1 vs 2 ? Answer by quoting the chosen item's label.
Out: 2
(2: 1.6%, 1: 2.87%)
